Each recorded value in this set is attributed to paper PMC10499406.

- TEST_SUMMARY: clinical
- MEASUREMENT_SETUP: human, in vivo, 600 mg, C max, FE 600 mg single dose, fasted period, n = 8; mean
MEASURED_PARAMETER: Cmax (ng/mL)
Please state the figure in ng/mL; there is no need to write the unit.

Would you mind telling me what Cmax value was observed for `CN[C@@H]1COc2c(S(=O)(=O)NC(=O)Nc3c4c(cc5c3CCC5)CCC4)cnn2C1` ?
28000

---

- TEST_SUMMARY: clinical
- MEASUREMENT_SETUP: human, in vivo, 300 mg, C max, MAD 300 mg b.i.d., first dose (day 1), n = 6; mean
MEASURED_PARAMETER: Cmax

Would you mind telling me what Cmax value was observed for `CN[C@@H]1COc2c(S(=O)(=O)NC(=O)Nc3c4c(cc5c3CCC5)CCC4)cnn2C1` ?
15300 ng/mL
